Test system: DAPK3
Conditions: concentration: 1 μM, replicates: in singlicate; n = 1;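 note: KINOMEscan kinase panel screen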
Could you please report measured %Inh for the items listed next?
Write the answer as a number in %, unit excluded.

Challenge: Entry under review: COc1ccc(COc2cc(-n3cnc4ccccc43)sc2C(N)=O)cc1 [GSK1024304] . Reported %Inh?
Response given: 8

Challenge: Entry to check: O=c1cc(N2CCOCC2)nc2n(Cc3cccc4ccccc34)ccn12 [GSK2333389]
Response given: 0

Challenge: Entry to check: COc1cc2c(cc1OCCN1CCN(C)CC1)ncc1c3ccc(C#N)cc3[nH]c21
Response given: 7

Challenge: Entry to check: COc1cc2c(cc1OC[C@@H](O)CO)ncc1c3ccc(C#N)cc3[nH]c21
Response given: 13

Challenge: Entry to check: CCCCCc1nc2c(N)ncnc2n1CCCCC [SKF-97255]
Response given: 0

###

Could you please report measured %Inh for the items listed next?
Test system: ULK1
Details: concentration: 1 μM, replicates: in singlicate; n = 1
Write the answer as a number in %, unit excluded.

Challenge: Entry under review: Fc1ccc(-c2ncn(CCCN3CCOCC3)c2-c2cccnc2)cc1 [SB-211743] . Reported %Inh?
Response given: 4

Challenge: Entry to check: c1ccc(-c2n[nH]cc2-c2ccnc3ccccc23)nc1 [GW271431]
Response given: 0

Challenge: Entry to check: CCc1nc(-c2cccc(C)c2)c(-c2ccnc(NCc3ccccc3)c2)s1
Response given: 0

Challenge: Entry to check: O=C1Cc2cc(Nc3nc(NCc4cccc(S(=O)(=O)C(F)(F)F)c4)ncc3C(F)(F)F)ccc2N1
Response given: 3

Challenge: Entry to check: O=C(NCCNc1ccnc(Nc2ccc(F)cc2)n1)c1cc2ccccc2s1 [GSK1379874]
Response given: 3

Challenge: Entry to check: Cn1cc(-c2ccc3c(c2)CCN3C(=O)Cc2ccccc2Cl)c2c(N)ncnc21 [GSK2608885]
Response given: 6

###

Test system: PRKX
Conditions: concentration: 1 μM, replicates: in singlicate; n = 1
REPORTED_METRIC: %Inh (%)
Write the answer as a number in %, unit excluded.

Challenge: Entry under review: CC(=O)Nc1ccc(COc2ccc(Nc3ccnc4cc(-c5ccccn5)ccc34)cc2)cc1.Cl . Reported %Inh?
Response given: 12

Challenge: Entry to check: Cc1cccc(-c2nc(Nc3ccc4ncsc4c3)c3ccccc3n2)n1
Response given: 0

Challenge: Entry to check: COc1ccc(CNC(=O)NC2CCN(c3ccnc(Nc4ccc(OC)cc4)n3)C2)cc1 (centres unmarked)
Response given: 11

Challenge: Entry to check: COCCNC(=O)c1ccc(-c2cc(C(=O)NC3CC3)cc(F)c2C)cc1
Response given: 0

Challenge: Entry to check: Cl.Cl.Cl.Fc1ccc(-c2ncn(C3CCNCC3)c2-c2ccnc(Nc3ccccc3)n2)cc1
Response given: 0

Challenge: Entry to check: O=C(NCCCN1CCOCC1)c1cccc(Nc2nccc(Nc3ccc(Oc4ccccc4)cc3)n2)c1
Response given: 17

Challenge: Entry to check: CC(C)Oc1ccc2c(-c3ccnc(Nc4ccc(N5CCN(C)CC5)cc4)n3)cnn2n1
Response given: 0

Challenge: Entry to check: NCC(NC(=O)c1cc(-c2cn[nH]c2)c(-c2ccnc3[nH]ccc23)s1)c1ccccc1.O=C(O)C(F)(F)F.O=C(O)C(F)(F)F (centres unmarked)
Response given: 97.8

###

Could you please report measured %Inh for the items listed next?
Test system: CHEK2
Details: concentration: 1 μM, replicates: in singlicate; n = 1
Write the answer as a number in %, unit excluded.

Challenge: Entry under review: Cn1cc(-c2ccc3c(c2)CCN3C(=O)Cc2ccccc2Cl)c2c(N)ncnc21 . Reported %Inh?
Response given: 4

Challenge: Entry to check: O=C(NCCNc1ccnc(Nc2ccc(F)cc2)n1)Nc1ccccc1F
Response given: 0

Challenge: Entry to check: COc1ccc(Nc2nccc(N3CCC(NC(=O)Nc4cc(C)ccc4C)C3)n2)cc1 (stereo not drawn)
Response given: 0

Challenge: Entry to check: O=c1cc(N2CCOCC2)nc2n(Cc3cccc4ccccc34)ccn12
Response given: 0

Challenge: Entry to check: Fc1ccc(-c2nn3c(OCC(F)(F)F)cccc3c2-c2ccncc2)cc1
Response given: 30

Challenge: Entry to check: O=C(NOCC1CC1)c1ccc(F)c(F)c1Nc1ccc(I)cc1Cl
Response given: 21

Challenge: Entry to check: COc1ccc(COc2cc(-n3cnc4ccccc43)sc2C(N)=O)cc1
Response given: 0

Challenge: Entry to check: O=C(NCCNc1ccnc(Nc2ccc(F)cc2)n1)c1cc2ccccc2s1
Response given: 0

Challenge: Entry to check: Cc1nnc(-c2ccc3occ(-c4ccc(C(C)O)cc4)c3c2)o1 (stereo not drawn)
Response given: 15

###

System: CDKL3
Settings: concentration: 1 μM, replicates: in singlicate; n = 1
Could you please report measured %Inh for the items listed next?
Write the answer as a number in %, unit excluded.

Challenge: Entry under review: COc1cc(Nc2nccc(N3CCC(NC(=O)c4cccc(NC(C)=O)c4)C3)n2)cc(OC)c1OC (stereo not drawn) [GSK1379754] . Reported %Inh?
Response given: 0

Challenge: Entry to check: NS(=O)(=O)c1cccc(-c2ccc3ncc(N4CCOCC4)nc3c2)c1 [GSK1535721]
Response given: 0

Challenge: Entry to check: CC(=O)Nc1ccc(COc2ccc(Nc3ccnc4cc(-c5ccccn5)ccc34)cc2)cc1.Cl [GW440148]
Response given: 0

Challenge: Entry to check: c1ccc(-c2n[nH]cc2-c2ccnc3ccccc23)nc1 [GW271431]
Response given: 0

Challenge: Entry to check: COCCNC(=O)c1ccc(-c2cc(C(=O)NC3CC3)cc(F)c2C)cc1 [GW868318]
Response given: 27

Challenge: Entry to check: N#Cc1ccc(-c2cc(-c3c[nH]nc3-c3ccccn3)ccn2)cc1 [GW693028]
Response given: 0

Challenge: Entry to check: CCn1cnc2c(N)ncnc21 [GW345098]
Response given: 0

Challenge: Entry to check: O=C(Nc1n[nH]c2cc(-c3cccc(F)c3)ccc12)C1CC1 [SB-735464]
Response given: 28

Challenge: Entry to check: Cn1cc(-c2ccc3c(c2)CCN3C(=O)Cc2ccccc2Cl)c2c(N)ncnc21 [GSK2608885]
Response given: 0

###

Could you please report measured %Inh for the items listed next?
Tested on: JAK1(JH1domain-catalytic)
Conditions: concentration: 1 μM, replicates: in singlicate; n = 1
Write the answer as a number in %, unit excluded.

Challenge: Entry under review: CN(C(=O)c1ccc(-c2cc(-c3c[nH]nc3-c3ccccn3)ccn2)cc1)C1CCOCC1 . Reported %Inh?
Response given: 0

Challenge: Entry to check: Cc1cn2c(=O)cc(N3CCOCC3)nc2n1Cc1cccc(Cl)c1Cl
Response given: 2

Challenge: Entry to check: Cc1c2ccc(N(C)c3ccnc(Nc4cccc(S(N)(=O)=O)c4)n3)cc2nn1Cc1ccccc1.Cl.Cl
Response given: 36

Challenge: Entry to check: N#Cc1ccc(-c2cc(-c3c[nH]nc3-c3ccccn3)ccn2)cc1
Response given: 22

###

Could you please report measured %Inh for the items listed next?
Tested on: CAMK2D
Conditions: concentration: 1 μM, replicates: in singlicate; n = 1
Write the answer as a number in %, unit excluded.

Challenge: Entry under review: COc1ccc(S(=O)(=O)NC2CCN(c3cc(C)nc(Nc4cccc(C#N)c4)n3)CC2)cc1.O=C(O)C(F)(F)F . Reported %Inh?
Response given: 6

Challenge: Entry to check: Cn1ccc2ncnc(Oc3ccc(NC(=O)Nc4ccncc4)c(Cl)c3)c21
Response given: 0

Challenge: Entry to check: Fc1ccc(-c2ncn(CCCN3CCOCC3)c2-c2cccnc2)cc1
Response given: 0

Challenge: Entry to check: Cl.Nc1ncnc2occ(-c3ccc(NC(=O)Nc4cc(C(F)(F)F)ccc4F)cc3)c12
Response given: 0

Challenge: Entry to check: O=c1cc(N2CCOCC2)nc2n(Cc3cccc(C(F)(F)F)c3)ccn12
Response given: 0

Challenge: Entry to check: Cc1nnc(-c2ccc3occ(-c4ccc(C(C)O)cc4)c3c2)o1 (stereo not shown)
Response given: 6

Challenge: Entry to check: COc1cc2ncn(-c3cc(OCc4sccc4Cl)c(C(N)=O)s3)c2cc1OC
Response given: 2

Challenge: Entry to check: Cc1cccc(Cn2ccn3c(=O)cc(N4CCOCC4)nc23)c1
Response given: 9

Challenge: Entry to check: Cc1cccc(-c2nc(-c3ccc(S(C)(=O)=O)cc3)sc2-c2ccncc2)c1
Response given: 4

Challenge: Entry to check: COc1cc2c(cc1OC[C@@H](O)CO)ncc1c3ccc(C#N)cc3[nH]c21
Response given: 84

Challenge: Entry to check: O=C1NC(=O)C(N2CCc3ccccc32)=C1c1cccc(Cl)c1
Response given: 10

Challenge: Entry to check: O=c1cc(N2CCOCC2)nc2n(Cc3cccc(Cl)c3Cl)c(C3CC3)nn12
Response given: 18

Challenge: Entry to check: CNc1ncnc2[nH]ncc12
Response given: 0

Challenge: Entry to check: O=C1Cc2cc(Nc3nc(NCc4cccc(S(=O)(=O)C(F)(F)F)c4)ncc3C(F)(F)F)ccc2N1
Response given: 5

Challenge: Entry to check: NS(=O)(=O)CCc1cccc(Nc2nccc(-c3c(-c4cccc(NC(=O)c5c(F)cccc5F)c4)nn4ccccc34)n2)c1
Response given: 4

Challenge: Entry to check: Cl.Oc1cccc(Nc2ccnc3cc(-c4ccncc4)ccc23)c1
Response given: 6

Challenge: Entry to check: CCc1ccnc(/C=C/c2n[nH]c3cc(Sc4ccccc4C(=O)NC)ccc23)c1
Response given: 9

Challenge: Entry to check: O=c1cc(N2CCOCC2)nc2n(Cc3cccc(F)c3)ccn12
Response given: 0

Challenge: Entry to check: c1ccc(-c2n[nH]cc2-c2ccnc3ccccc23)nc1
Response given: 19
